Listed molecules paired with reported melting point

| molecule | melting point |
| --- | --- |
| COc1cc(C=NNC(=O)c2cccc(Cl)c2)ccc1OC(=O)C=C1SC(=O)NC1=O | 246 to 248 °C |
| O=C(C=C1SC(=O)NC1=O)Oc1ccc(C=NNC(=O)c2cccc(Cl)c2)cc1 | 278 to 279 °C |
| O=C(C=C1SC(=O)NC1=O)Oc1cccc(C=NNC(=O)c2cccc(Cl)c2)c1 | 282 to 283 °C |
| COc1cc(C=NNC(=S)Nc2ccccc2)ccc1OC(=O)C=C1SC(=O)NC1=O | 186 to 187 °C |
| O=C(CC1SC(=O)NC1=O)Oc1ccc(C=NNC(=O)c2cccc(Cl)c2)cc1 (centres unmarked) | 215 to 216 °C |
| O=C(CC1SC(=O)NC1=O)Oc1cccc(C=NNC(=O)c2cccc(Cl)c2)c1 (centres unmarked) | 244 to 245 °C |

Returns the measured melting point for the input molecule. Input: COc1cc(C=NNC(=O)c2cccc(Cl)c2)ccc1OC(=O)CC1SC(=O)NC1=O (centres unmarked)
220 to 222 °C

Same read-out for O=C(CC1SC(=O)NC1=O)Oc1ccc(C=NNC(=O)c2ccc(Cl)cc2Cl)cc1 (centres unmarked) ?
196 to 198 °C

###

Listed compounds paired with reported melting point

Example compounds with recorded melting point:
| compound | property_name | reported_value |
| --- | --- | --- |
| O=C(CC1SC(=O)NC1=O)Oc1cccc(C=NNC(=O)c2ccc(Cl)cc2Cl)c1 (centres unmarked) [Compound 13] | melting point | 198 to 200 °C |
| O=C(CC1SC(=O)NC1=O)Oc1cccc(C=NNC(=S)Nc2ccccc2)c1 (centres unmarked) [Compound 22] | melting point | 209 to 211 °C |
| O=C(C=C1SC(=O)NC1=O)Oc1ccccc1C=NNC(=O)c1cccc(Cl)c1 [Compound 18] | melting point | 243 to 245 °C |
| COc1cc(C=NNC(=S)Nc2ccccc2)ccc1OC(=O)CC1SC(=O)NC1=O (centres unmarked) [Compound 26] | melting point | 182 to 184 °C |
| O=C(CC1SC(=O)NC1=O)Oc1ccc(C=NNC(=S)Nc2ccccc2)cc1 (centres unmarked) [Compound 25] | melting point | 159 to 162 °C |
| COc1cc(C=NNC(=O)c2ccc(Cl)cc2Cl)ccc1OC(=O)CC1SC(=O)NC1=O (centres unmarked) [Compound 17] | melting point | 186 to 188 °C |
| Cc1ccc(NC(=S)NN=Cc2cccc(OC(=O)CC3SC(=O)NC3=O)c2)cc1 (centres unmarked) [Compound 23] | melting point | 194 to 196 °C |

Returns the measured melting point for the input compound. Input: O=C(C=C1SC(=O)NC1=O)Oc1ccc(C=NNC(=S)Nc2ccccc2)cc1 [Compound 27]
199 to 202 °C
